Some molecules, each annotated with its measured Foxtail, Green plant response rating (0 to 100 scale).
Tested on: green foxtail (Setaria viridis)
METHOD_NOTES: Test A postemergence application, visual injury rating 0-100
Assay type: in vivo
APPLIED_CONDITIONS: Postemergence, 16 g ai/ha, greenhouse 10 days; 0 no effect, 100 complete control
Respond using a number only.

- CCOC(=O)C1C=CC(NC(=O)C2(C)CN(c3cccc(OC(F)(F)F)c3)C(=O)O2)C1 (centres unmarked) [Compound 102]: 10
- COC(=O)C1C=CC(NC(=O)C2(C(F)(F)F)CN(c3cc(F)c(F)c(F)c3)C(=O)O2)C1 (mixture of isomers) [Compound 162]: 30
- CC1(C(=O)NC2CC=C(C(=O)O)C2)CN(c2cc(Cl)cc(Cl)c2)C(=O)O1 (centres unmarked) [Compound 157]: 0
- CC1(C(=O)NC2CC=C(C(=O)O)C2)CN(c2cc(F)cc(Cl)c2)C(=O)O1 (centres unmarked) [Compound 159]: 70
- CC1(C(=O)NC2CC=C(C(=O)O)C2)CN(c2cc(Cl)cc(Cl)c2)C(=O)O1 (centres unmarked) [Compound 158]: 90

Task: Recorded Foxtail, Green plant response rating (0 to 100 scale) for CCOC(=O)C1=CCC(NC(=O)C2(C)CN(c3cc(F)cc(F)c3)C(=O)O2)C1 (centres unmarked) [Compound 111] , please?
Result: 0

Task: Consider next the molecule CC(C)COC(=O)C1=CCC(NC(=O)C2(C)CN(c3cc(F)cc(F)c3)C(=O)O2)C1 (centres unmarked) [Compound 98] in the same way.
Result: 80

Task: Consider next the molecule CC1(C(=O)NC2CC(C(=O)O)C2)CN(c2cc(F)cc(F)c2)C(=O)O1 (centres unmarked) [Compound 119] in the same way.
Result: 70

* * *

Some molecules, each annotated with its measured Oat, Wild plant response rating (0-100).
System: oat, wild (wild oat, Avena fatua)
METHOD_NOTES: Test A preemergence soil spray, visual injury rating 0-100
Assay type: in vivo
APPLIED_CONDITIONS: 62 g ai/ha, 10 days, 0 = no effect, 100 = complete control
Excerpt: […]
Respond using a number only.

Please review the following examples before continuing.
* COC(=O)C1=CCC(NC(=O)C2(C)CN(c3cc(Cl)cc(Cl)c3)C(=O)O2)C1 (stereo not shown) | 0
* COC(=O)C1CC(NC(=O)C2(C)CN(c3cc(F)cc(F)c3)C(=O)O2)C1 (stereo not shown) [Compound 118] | 90

Task: Recorded Oat, Wild plant response rating (0-100) for CC1(C(=O)NC2CC(C(=O)OCC(F)(F)F)C2)CN(c2cc(F)cc(F)c2)C(=O)O1 (stereo not shown) , please?
Result: 90

Task: Consider next the molecule CC1(C(=O)NC2CC=C(C(=O)O)C2)CN(c2cc(F)cc(Cl)c2)C(=O)O1 (stereo not shown) in the same way.
Result: 20

Task: Consider next the molecule CC1(C(=O)NC2CC=C(C(=O)NS(=O)(=O)C(C)(C)C)C2)CN(c2cc(F)cc(F)c2)C(=O)O1 (racemic) in the same way.
Result: 0

* * *

Some compounds, each annotated with its measured Kochia plant response rating (0-100).
System: kochia (Bassia scoparia)
METHOD_NOTES: Test A preemergence soil spray, visual injury rating 0-100
Type: in vivo
APPLIED_CONDITIONS: 31 g ai/ha, 10 days, 0 = no effect, 100 = complete control
Respond using a number only.

Please review the following examples before continuing.
* CCOC(=O)C1CCC(NC(=O)C2(C)CN(c3cc(F)cc(F)c3)C(=O)O2)C1 (stereo not drawn) | 0
* COC(=O)C1=CCC(NC(=O)C2(C)CN(c3cc(F)cc(F)c3)C(=O)O2)C1 (single isomer, unassigned) | 0
* CC1(C(=O)NC2CC=C(C(=O)OCC(F)(F)F)C2)CN(c2cc(F)cc(F)c2)C(=O)O1 (single isomer, unassigned) | 0
* CC(=O)COC(=O)C1C=CC(NC(=O)C2(C)CN(c3cc(Cl)cc(Cl)c3)C(=O)O2)C1 (stereo not drawn) | 70
* CCOC(=O)C1C=CC(NC(=O)C2(C)CN(c3cc(F)cc(Cl)c3)C(=O)O2)C1 (stereo not drawn) | 70
* CC1(C(=O)NC2C=CC(C(=O)OCc3ccc(F)cc3)C2)CN(c2cc(F)cc(F)c2)C(=O)O1 (stereo not drawn) | 0

Task: Recorded Kochia plant response rating (0-100) for CC1(C(=O)NC2C=CC(C(=O)OCC(F)(F)F)C2)CN(c2cc(F)cc(F)c2)C(=O)O1 (stereo not drawn) , please?
Result: 0

Task: Consider next the compound CSCCOC(=O)C1=CCC(NC(=O)C2(C)CN(c3cc(F)cc(F)c3)C(=O)O2)C1 (stereo not drawn) in the same way.
Result: 0

Task: Consider next the compound CNC(=O)C1CC(NC(=O)C2(C)CN(c3cc(F)cc(F)c3)C(=O)O2)CO1 (stereo not drawn) in the same way.
Result: 0

Task: Consider next the compound CC(C)OC(=O)C1CCC(NC(=O)C2(C)CN(c3cc(F)cc(Cl)c3)C(=O)O2)C1 (stereo not drawn) in the same way.
Result: 0

Task: Consider next the compound CC(C)OC(=O)C1=CCC(NC(=O)C2(C)CN(c3cc(F)cc(F)c3)C(=O)O2)C1 (stereo not drawn) in the same way.
Result: 0

* * *

System: kochia (Bassia scoparia)
METHOD_NOTES: Test A postemergence application, visual injury rating 0-100
Type: in vivo
APPLIED_CONDITIONS: 31 g ai/ha, postemergence, 10 days, 0 = no effect, 100 = complete control
MEASUREMENT_TYPE: Kochia plant response rating (0-100)

Please review the following examples before continuing.
• CSCCOC(=O)C1=CCC(NC(=O)C2(C)CN(c3cc(F)cc(F)c3)C(=O)O2)C1 (centres unmarked) = 60
• CC1(C(=O)NC2C=CC(C(=O)OC3CCCC3)C2)CN(c2cc(F)cc(F)c2)C(=O)O1 (centres unmarked) = 80
• CC(C)OC(=O)C1C=CC(NC(=O)C2(C)CN(c3cc(F)cc(Cl)c3)C(=O)O2)C1 (centres unmarked) = 70
• CC(C)COC(=O)C1=CCC(NC(=O)C2(C)CN(c3cc(F)cc(F)c3)C(=O)O2)C1 (centres unmarked) = 70
• CC(C)OC(=O)C1=CCC(NC(=O)C2(C)CN(c3cc(F)cc(F)c3)C(=O)O2)C1 (centres unmarked) = 30
• CCOC(=O)C1CCC(NC(=O)C2(C)CN(c3cc(F)cc(F)c3)C(=O)O2)C1 (centres unmarked) = 20

Moving on to the next compound.
Task: Under kochia (Bassia scoparia): Kochia plant response rating (0-100) value of CC1(C(=O)NC2CCC(C(=O)O)C2)CN(c2cc(F)cc(Cl)c2)C(=O)O1 (centres unmarked) ?
Result: 70

* * *

Tested on: soybean (Glycine max)
METHOD_NOTES: Test A preemergence soil spray, visual injury rating 0-100
Assay type: in vivo
APPLIED_CONDITIONS: 62 g ai/ha, 10 days, 0 = no effect, 100 = complete control
MEASUREMENT_TYPE: Soybean plant response rating (0-100)
Respond using a number only.

Please review the following examples before continuing.
* C=CC1(C(=O)NC2CC(C(=O)OC)C2)CN(c2cc(F)cc(F)c2)C(=O)O1 (centres unmarked) | 70
* COC(=O)C1=CCC(NC(=O)C2(C)CN(c3cc(Cl)cc(Cl)c3)C(=O)O2)C1 (centres unmarked) | 20
* COC(=O)C1C=CC(NC(=O)C2(C)CN(c3cc(Cl)c(F)c(Cl)c3)C(=O)O2)C1 (centres unmarked) | 0
* COC(=O)C1C=CC(NC(=O)C2(C)CN(c3cccc(OC(F)(F)F)c3)C(=O)O2)C1 (mixture of isomers) | 0

Task: Under soybean (Glycine max): Soybean plant response rating (0-100) value of CC(C)COC(=O)C1=CCC(NC(=O)C2(C)CN(c3cc(Cl)cc(Cl)c3)C(=O)O2)C1 (centres unmarked) ?
Result: 0

Task: Consider next the compound CC1(C(=O)NC2CC=C(C(=O)O)C2)CN(c2cc(F)cc(Cl)c2)C(=O)O1 (centres unmarked) in the same way.
Result: 50

Task: Consider next the compound COC(=O)C1C=CC(NC(=O)C2(C(F)(F)F)CN(c3cc(F)c(F)c(F)c3)C(=O)O2)C1 (mixture of isomers) in the same way.
Result: 50

Task: Consider next the compound CC(C)OC(=O)C1=CCC(NC(=O)C2(C)CN(c3cc(F)cc(F)c3)C(=O)O2)C1 (centres unmarked) in the same way.
Result: 0

* * *

System: foxtail, giant (giant foxtail, Setaria faberi)
METHOD_NOTES: Test A preemergence soil spray, visual injury rating 0-100
Format: in vivo
APPLIED_CONDITIONS: 1000 g ai/ha, 10 days, 0 = no effect, 100 = complete control
MEASUREMENT_TYPE: Foxtail, Giant plant response rating (0 to 100 scale)
Respond using a number only.

* CC(C)OC(=O)C1C=CC(NC(=O)C2(C)CN(c3cc(F)cc(F)c3)C(=O)O2)C1 (stereo not shown) | 100

Task: Recorded Foxtail, Giant plant response rating (0 to 100 scale) for CCCS(=O)(=O)NC(=O)C1C=CC(NC(=O)C2(C)CN(c3cc(F)cc(F)c3)C(=O)O2)C1 (stereo not shown) , please?
Result: 90

Task: Consider next the molecule CCOC(=O)C1C=CC(NC(=O)C2(C)CN(c3cc(F)cc(F)c3)C(=O)O2)C1 (stereo not shown) in the same way.
Result: 100

Task: Consider next the molecule COC(=O)[C@@H]1C=C[C@H](NC(=O)C2(C)CN(c3cc(F)cc(F)c3)C(=O)O2)C1 (stereo partly shown) in the same way.
Result: 100
